Tested on: HS-PSS
Experiment: relative IC50 (inflection point of fitted dose-response curve, CellTox-Green cytotoxicity, 72 h; top asymptote may be below 50%); higher = less potent
quantity.kind: relative IC50

[[record]]
structure_smiles = "Cc1nc(C(=O)NCC(=O)O)c(O)c2ccc(Oc3ccccc3)cc12"
system = "HS-PSS"
observed_result = "> 10 µM"


GET relative IC50 | system: HS-PSS | item: CCN1CCN(Cc2ccc(Nc3ncc(F)c(-c4cc(F)c5nc(C)n(C(C)C)c5c4)n3)nc2)CC1
> 2.5 µM

GET relative IC50 | system: HS-PSS | item: c1cn2cc(-c3ccc4cn[nH]c4c3)nc(Nc3ccc(N4CCOCC4)cc3)c2n1
> 5 µM

GET relative IC50 | system: HS-PSS | item: COC1=CC(c2cc3ccccc3[nH]2)=N/C1=C\c1[nH]c(C)cc1C
> 10 µM

* * *

Let's look at some molecules and their measured drug sensitivity score.
Tested on: HS-Sch-2
Test: drug sensitivity score (DSS, CellTiter-Glo viability, 72 h) (DSS (dimensionless)); higher = more sensitive; extreme values may be limits of the assay

// solved cases for drug sensitivity score follow
[[record]]
molecule = "CCCCC/C=C/C=C1/C(=O)C=C[C@@H]1C/C=C\\CCCC(=O)O [15D-PGJ2] (max concentration tested 3000 nM)"
observed_result = 0.58

[[record]]
molecule = "Cc1cc(OCc2nnc(SC3CCCC3)n2-c2cccnc2)ccc1-c1ccc(S(C)(=O)=O)cc1 [NMS-873] (max concentration tested 10000 nM)"
observed_result = 19.2

[[record]]
molecule = "Cc1csc(-c2nnc(Nc3ccc(Oc4ncccc4-c4ccnc(N)n4)cc3)c3ccccc23)c1 [AMG-900] (max concentration tested 1000 nM)"
observed_result = 1.27

[[record]]
molecule = "CC(C)Cn1cnc2c(N)nc3ccccc3c21 [Imiquimod] (max concentration tested 2500 nM)"
observed_result = 0.45

[[record]]
molecule = "Nc1nccc(-c2c(-c3ccc(F)cc3)ncn2C2CCCCC2)n1 (max concentration tested 10000 nM)"
observed_result = 0.99

[[record]]
molecule = "CN(C)/N=N/c1[nH]cnc1C(N)=O [Dacarbazine] (max concentration tested 10000 nM)"
observed_result = 0

[[record]]
molecule = "CN(CC(=O)N(Cc1ccc(C2CCCCC2)cc1)c1ccc(C(=O)O)cc1)S(=O)(=O)c1c(F)c(F)c(F)c(F)c1F [SH-4-54] (max concentration tested 25000 nM)"
observed_result = 7.18

[[record]]
molecule = "NS(=O)(=O)NCCNc1nonc1/C(=N/O)Nc1ccc(F)c(Br)c1 [Epacadostat] (max concentration tested 10000 nM)"
observed_result = 0.29


GET drug sensitivity score | system: HS-Sch-2 | item: COc1cccc2c1C(=O)c1c(O)c3c(c(O)c1C2=O)C[C@@](O)(C(C)=O)C[C@@H]3O[C@H]1C[C@H](N)[C@H](O)[C@H](C)O1 [Daunorubicin] (max concentration tested 1000 nM)
10.6

GET drug sensitivity score | system: HS-Sch-2 | item: CCC(C)n1ncn(-c2ccc(N3CCN(c4ccc(OCC5COC(Cn6cncn6)(c6ccc(Cl)cc6Cl)O5)cc4)CC3)cc2)c1=O (stereo not given) [Itraconazole] (max concentration tested 5000 nM)
0.33

* * *

Tested on: HS-PSS
Assay: drug sensitivity score (DSS, CellTiter-Glo viability, 72 h) (DSS (dimensionless)); higher = more sensitive; extreme values may be limits of the assay
Let's look at some compounds and their measured drug sensitivity score.
Respond numerically, and do not add a unit to the figure.

// solved cases for drug sensitivity score follow
[[record]]
compound = "CC(C)(C)NC(=O)[C@H]1CC[C@H]2[C@@H]3CC[C@H]4NC(=O)C=C[C@]4(C)[C@H]3CC[C@]12C [Finasteride] (max concentration tested 10000 nM)"
observed_result = 0

[[record]]
compound = "Cc1csc(-c2nnc(Nc3ccc(Oc4ncccc4-c4ccnc(N)n4)cc3)c3ccccc23)c1 [AMG-900] (max concentration tested 1000 nM)"
observed_result = 0.8

[[record]]
compound = "Cc1cc(C(C)Nc2ccccc2)c2nc(N3CCOCC3)cc(=O)n2c1 (stereo unspecified) [TGX-221] (max concentration tested 10000 nM)"
observed_result = 0

[[record]]
compound = "CCC(C)(C)C(=O)O[C@H]1C[C@@H](C)C=C2C=C[C@H](C)[C@H](CC[C@@H]3C[C@@H](O)CC(=O)O3)[C@H]21 [Simvastatin] (max concentration tested 10000 nM)"
observed_result = 3.55

[[record]]
compound = "CN(C)C/C=C/C(=O)Nc1cc2c(Nc3ccc(F)c(Cl)c3)ncnc2cc1O[C@H]1CCOC1 [Afatinib] (max concentration tested 1000 nM)"
observed_result = 2.49


Provide measured drug sensitivity score value, entry: CCc1cnn2c(NCc3ccc[n+]([O-])c3)cc(N3CCCC[C@H]3CCO)nc12 [Dinaciclib] (max concentration tested 1000 nM)
21

* * *

Test system: STS26T
Assay: % inhibition of CellTiter-Glo viability at highest tested concentration (72 h), relative to DMSO and benzethonium chloride controls; higher = more inhibition
Let's look at some molecules and their measured % inhibition.
Write down the numeric answer in % and omit the unit.

// solved cases for % inhibition follow
[[record]]
molecule = "CCc1cnn2c(NCc3ccc[n+]([O-])c3)cc(N3CCCC[C@H]3CCO)nc12 [Dinaciclib] (max concentration tested 1000 nM)"
observed_result = 92.7

[[record]]
molecule = "O=C(O)C1(C(=O)O)CCC1.[NH2-].[NH2-].[Pt+2] [Carboplatin aq] (max concentration tested 100000 nM)"
observed_result = 81.2

[[record]]
molecule = "Cc1ccc(NC(=O)c2ccc(CN3CCN(C)CC3)cc2)cc1Nc1nc(-c2cccnc2)cs1 [Masitinib] (max concentration tested 10000 nM)"
observed_result = 80.8

[[record]]
molecule = "COc1cc(O)c2c(c1)/C=C/C[C@H](O)[C@H](O)C(=O)/C=C\\C[C@H](C)OC2=O [(5Z)-7-Oxozeaenol] (max concentration tested 10000 nM)"
observed_result = 68.6

[[record]]
molecule = "CC(C)Cn1cnc2c(N)nc3ccccc3c21 [Imiquimod] (max concentration tested 2500 nM)"
observed_result = 3.07


Provide measured % inhibition value, entry: c1ccc([C@H]2CN3CCSC3=N2)cc1 [Levamisole] (max concentration tested 10000 nM)
6.7

* * *

Tested on: YST-1
Assay: drug sensitivity score (DSS, CellTiter-Glo viability, 72 h) (DSS (dimensionless)); higher = more sensitive; extreme values may be limits of the assay
quantity.kind: drug sensitivity score
Respond numerically, and do not add a unit to the figure.

// solved cases for drug sensitivity score follow
[[record]]
molecule = "C/C(=C\\c1csc(C)n1)[C@@H]1C[C@@H]2O[C@]2(C)CCC[C@H](C)[C@H](O)[C@@H](C)C(=O)C(C)(C)[C@@H](O)CC(=O)N1 [Ixabepilone] (max concentration tested 1000 nM)"
observed_result = 3.86

[[record]]
molecule = "O=C(CCBr)N1CCN(C(=O)CCBr)CC1 [Pipobroman] (max concentration tested 10000 nM)"
observed_result = 0


Provide measured drug sensitivity score value, entry: Cn1ncnc1[C@H]1c2n[nH]c(=O)c3cc(F)cc(c23)N[C@@H]1c1ccc(F)cc1 [Talazoparib] (max concentration tested 1000 nM)
15.5

* * *

Tested on: HS-Sch-2
Experiment: % inhibition of CellTiter-Glo viability at highest tested concentration (72 h), relative to DMSO and benzethonium chloride controls; higher = more inhibition
quantity.kind: % inhibition (%)
Write down the numeric answer in % and omit the unit.

[[record]]
molecule = "CN(c1ncccc1CNc1nc(Nc2ccc3c(c2)CC(=O)N3)ncc1C(F)(F)F)S(C)(=O)=O (max concentration tested 10000 nM)"
unit_string = "%"
observed_result = 99.2

[[record]]
molecule = "CC(C)N(C[C@H]1O[C@@H](n2cnc3c(N)ncnc32)[C@H](O)[C@@H]1O)[C@H]1C[C@@H](CCc2nc3cc(C(C)(C)C)ccc3[nH]2)C1 [Pinometostat] (max concentration tested 1000 nM)"
unit_string = "%"
observed_result = -7.39

[[record]]
molecule = "NCCNc1ccc(NCCN)c2c1C(=O)c1ccncc1C2=O [Pixantrone] (max concentration tested 10000 nM)"
unit_string = "%"
observed_result = 50.7

[[record]]
molecule = "C/C(=C\\c1csc(C)n1)[C@@H]1C[C@@H]2O[C@]2(C)CCC[C@H](C)[C@H](O)[C@@H](C)C(=O)C(C)(C)[C@@H](O)CC(=O)N1 [Ixabepilone] (max concentration tested 1000 nM)"
unit_string = "%"
observed_result = 91.8


Continue with the next molecule.
Provide measured % inhibition value, entry: CCNc1nc(Nc2cc(F)c(C(=O)N3CCOCC3)cc2OC)ncc1C(F)(F)F [GNE-7915] (max concentration tested 1000 nM)
12.4

* * *

Test system: S462
Assay: % inhibition of CellTiter-Glo viability at highest tested concentration (72 h), relative to DMSO and benzethonium chloride controls; higher = more inhibition
If the reported % inhibition equals or exceeds 70%, assign t. If not, assign f.

// known answers, use as guide
[[record]]
compound = "COc1cc(OC2CCN(C)CC2)ccc1Nc1ncc2c(n1)n(C1CCCC1)c(=O)n2C [AZ 3146] (max concentration tested 10000 nM)"
system = "S462"
label_value = "t"

[[record]]
compound = "CCCc1cc(C)[nH]c(=O)c1CNC(=O)c1cc(-c2ccnc(N3CCN(C)CC3)c2)cc2c1cnn2C(C)C [GSK343] (max concentration tested 10000 nM)"
system = "S462"
label_value = "f"

[[record]]
compound = "CCc1cncnc1N1CCN(Cc2nc3ccc(C(F)(F)F)cc3[nH]2)CC1 (max concentration tested 10000 nM)"
system = "S462"
label_value = "f"

[[record]]
compound = "CCOC(=O)CCNc1cc(N2CCc3ccccc3CC2)nc(-c2ccccn2)n1 [GSK-J4] (max concentration tested 100000 nM)"
system = "S462"
label_value = "t"

[[record]]
compound = "Nc1cc(C(F)(F)F)c(-c2cc(N3CCOCC3)nc(N3CCOCC3)n2)cn1 [Buparlisib] (max concentration tested 10000 nM)"
system = "S462"
label_value = "t"

[[record]]
compound = "Cn1c(CCCC(=O)O)nc2cc(N(CCCl)CCCl)ccc21 [Bendamustine] (max concentration tested 10000 nM)"
system = "S462"
label_value = "f"


Confirm if % inhibition reported for the compound COc1ccc(C2=N[C@@H](c3ccc(Cl)cc3)[C@@H](c3ccc(Cl)cc3)N2C(=O)N2CCNC(=O)C2)c(OC(C)C)c1 [Nutlin-3] (max concentration tested 10000 nM) is 70% or above.
f

Confirm if % inhibition reported for the compound C[C@H]1C=C2C(=O)O[C@H]3CC[C@@H](C1)[C@@]23O [Galiellalactone] (max concentration tested 50000 nM) is 70% or above.
t

Confirm if % inhibition reported for the compound CC[C@]1(O)C[C@@H]2CN(CCc3c([nH]c4ccccc34)[C@@](C(=O)OC)(c3cc4c(cc3OC)N(C)[C@H]3[C@@](O)(C(=O)OC)[C@H](OC(C)=O)[C@]5(CC)C=CCN6CC[C@]43[C@@H]65)C2)C1 [Vinblastine] (max concentration tested 1000 nM) is 70% or above.
t

Confirm if % inhibition reported for the compound CC(C)(C)c1cnc(CSc2cnc(NC(=O)C3CCNCC3)s2)o1 [SNS-032] (max concentration tested 10000 nM) is 70% or above.
t

Confirm if % inhibition reported for the compound CNC(=O)c1ccc(N2C(=S)N(c3ccc(C#N)c(C(F)(F)F)c3)C(=O)C23CCC3)cc1F [RD162] (max concentration tested 10000 nM) is 70% or above.
f
